Data origin: patent US10414760B2

- Subject Of Test: CYP26 (Mus musculus, UniProt O55127)
- Sequence (O55127 1-497): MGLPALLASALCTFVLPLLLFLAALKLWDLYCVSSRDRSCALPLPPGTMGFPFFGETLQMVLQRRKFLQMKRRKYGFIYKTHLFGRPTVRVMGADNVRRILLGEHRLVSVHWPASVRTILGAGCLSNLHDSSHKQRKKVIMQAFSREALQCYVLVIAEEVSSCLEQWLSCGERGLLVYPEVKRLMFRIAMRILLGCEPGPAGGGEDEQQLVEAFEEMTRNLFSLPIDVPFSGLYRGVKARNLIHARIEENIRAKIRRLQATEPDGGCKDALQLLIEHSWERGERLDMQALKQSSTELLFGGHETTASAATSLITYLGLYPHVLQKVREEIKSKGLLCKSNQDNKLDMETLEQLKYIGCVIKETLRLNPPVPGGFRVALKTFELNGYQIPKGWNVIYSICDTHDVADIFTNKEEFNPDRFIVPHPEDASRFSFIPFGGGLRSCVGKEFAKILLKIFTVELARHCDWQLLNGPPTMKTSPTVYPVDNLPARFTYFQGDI
pIC50: −log10 of the molar value.
Readout: pIC50

Worked cases, pIC50 given:
Compound	Subject Of Test	Meas Value
CCC(C(c1ccc2nc(-c3ccc(C(=O)OC)cc3)sc2c1)n1ccnc1)N(C)C (stereo not drawn)	CYP26 (Mus musculus, UniProt O55127)	> 6.00
CCC(C(c1ccc2nc(NC(=O)c3cccc(C(=O)O)c3)sc2c1)n1ccnc1)N(C)C (stereo not drawn)	CYP26 (Mus musculus, UniProt O55127)	> 6.00

In the following, a different compound is considered.
[in] Lookup: pIC50 / CYP26 (Mus musculus, UniProt O55127) / CCC(C(c1ccc2nc(-c3cc(C(=O)O)cc(C(F)(F)F)c3)sc2c1)n1ccnc1)N(C)C (stereo not drawn)
[out] > 6.00

###

IC50 values for the compounds below.
- Subject Of Test: CYP17 (Rattus norvegicus)
- Sequence (P11715 1-507): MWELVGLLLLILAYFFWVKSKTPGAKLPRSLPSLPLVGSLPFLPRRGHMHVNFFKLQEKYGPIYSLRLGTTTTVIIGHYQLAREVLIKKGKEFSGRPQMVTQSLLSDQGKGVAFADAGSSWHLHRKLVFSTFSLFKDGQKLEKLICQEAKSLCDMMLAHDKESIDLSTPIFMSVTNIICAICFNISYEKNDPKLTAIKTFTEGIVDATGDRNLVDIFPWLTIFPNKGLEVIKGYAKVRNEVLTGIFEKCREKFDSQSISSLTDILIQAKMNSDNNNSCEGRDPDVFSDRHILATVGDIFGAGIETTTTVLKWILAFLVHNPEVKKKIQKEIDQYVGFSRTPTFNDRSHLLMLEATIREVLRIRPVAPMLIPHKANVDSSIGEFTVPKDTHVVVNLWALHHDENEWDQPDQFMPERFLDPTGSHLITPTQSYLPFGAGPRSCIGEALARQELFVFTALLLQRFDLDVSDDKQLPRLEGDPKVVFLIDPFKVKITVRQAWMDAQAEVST

Worked cases, IC50 given:
Compound	Subject Of Test	Readout	Meas Value
CCC(C(c1ccc2nc(NC(N)=O)sc2c1)n1ccnc1)N(C)C (stereo not drawn) [Example 2]	CYP17 (Rattus norvegicus)	IC50	< 5 µM
CCC(C(c1ccc2nc(C(N)=O)sc2c1)n1ccnc1)N(C)C (stereo not drawn) [Example 14]	CYP17 (Rattus norvegicus)	IC50	< 5 µM

[in] Reported IC50, compound CCC(C(c1ccc2nc(Cl)sc2c1)n1ccnc1)N(C)CC (stereo not drawn) [Example 10] : ____
[out] < 5 µM
